biological target: epidermal growth factor receptor (EGFR) (Homo sapiens, UniProt P00533); test: EGFR kinase inhibition, solid-phase ELISA assay
Sequence (P00533 25-1210): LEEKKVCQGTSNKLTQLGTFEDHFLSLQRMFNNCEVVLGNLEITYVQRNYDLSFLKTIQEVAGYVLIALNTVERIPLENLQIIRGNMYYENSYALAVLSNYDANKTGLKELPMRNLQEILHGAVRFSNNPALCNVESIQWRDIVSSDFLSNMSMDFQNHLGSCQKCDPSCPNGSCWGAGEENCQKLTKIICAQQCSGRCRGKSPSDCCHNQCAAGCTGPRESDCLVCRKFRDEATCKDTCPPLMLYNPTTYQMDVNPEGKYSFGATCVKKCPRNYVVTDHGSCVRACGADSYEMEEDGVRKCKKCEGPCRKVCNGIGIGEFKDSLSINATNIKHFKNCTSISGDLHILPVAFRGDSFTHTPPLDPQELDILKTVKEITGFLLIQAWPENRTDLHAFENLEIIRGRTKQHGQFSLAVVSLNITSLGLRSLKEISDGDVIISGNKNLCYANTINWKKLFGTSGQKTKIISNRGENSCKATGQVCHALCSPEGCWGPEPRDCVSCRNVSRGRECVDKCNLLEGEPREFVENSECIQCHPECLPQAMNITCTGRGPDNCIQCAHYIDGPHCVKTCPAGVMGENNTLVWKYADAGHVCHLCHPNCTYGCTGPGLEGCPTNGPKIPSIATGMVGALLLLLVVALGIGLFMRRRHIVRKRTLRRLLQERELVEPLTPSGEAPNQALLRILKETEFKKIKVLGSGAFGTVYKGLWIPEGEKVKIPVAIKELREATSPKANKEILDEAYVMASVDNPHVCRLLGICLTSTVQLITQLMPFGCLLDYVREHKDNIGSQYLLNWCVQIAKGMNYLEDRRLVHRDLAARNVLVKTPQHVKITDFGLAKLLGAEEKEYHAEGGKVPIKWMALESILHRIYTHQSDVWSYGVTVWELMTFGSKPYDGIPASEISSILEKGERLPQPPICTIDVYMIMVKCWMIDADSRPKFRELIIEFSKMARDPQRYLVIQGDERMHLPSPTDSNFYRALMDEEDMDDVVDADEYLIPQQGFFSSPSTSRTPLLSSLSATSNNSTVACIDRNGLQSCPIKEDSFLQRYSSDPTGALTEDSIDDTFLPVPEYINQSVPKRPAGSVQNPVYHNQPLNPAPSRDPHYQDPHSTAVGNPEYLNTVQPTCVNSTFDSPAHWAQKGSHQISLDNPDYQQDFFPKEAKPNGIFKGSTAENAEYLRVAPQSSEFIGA
Label YES when IC50 is strictly below 10 µM; otherwise label NO.

// known answers, use as guide
• COc1ccc(/C=N/NC(=O)c2ccc(N3N=C(c4ccc(Br)cc4)CC3c3ccc4ccccc4c3)cc2)cc1 (stereo not shown) [Compound H32] = YES
• CCOc1ccc(C2=NN(c3ccc(C(=O)N/N=C/c4cccc(OC)c4)cc3)C(c3ccc4ccccc4c3)C2)cc1 (stereo not shown) [Compound H8] = YES
• COc1cccc(/C=N/NC(=O)c2ccc(N3N=C(c4ccc(Cl)cc4)CC3c3ccc4ccccc4c3)cc2)c1 (stereo not shown) [Compound H14] = NO

Q: Could you please tell me whether IC50 recorded for COc1ccc(/C=N/NC(=O)c2ccc(N3N=C(c4ccccc4F)CC3c3ccc4ccccc4c3)cc2)cc1 (stereo not shown) [Compound H25] is less than 10 µM?
A: NO

Q: Could you please tell me whether IC50 recorded for COc1cccc(/C=N/NC(=O)c2ccc(N3N=C(c4cc(F)cc(F)c4)CC3c3ccc4ccccc4c3)cc2)c1 (stereo not shown) [Compound H12] is less than 10 µM?
A: NO

Q: Could you please tell me whether IC50 recorded for CCOc1ccc(C2=NN(c3ccc(C(=O)N/N=C/c4ccc(OC)cc4)cc3)C(c3ccc4ccccc4c3)C2)cc1 (stereo not shown) [Compound H24] is less than 10 µM?
A: YES

====

Quick reference: pIC50 of the listed items.
system: A549 cells; assay: MTT antiproliferative assay, A549; assay type: cell-based, human; settings: read-out: In vitro antiproliferative activity IC50, A549
# pIC50: negative log10 of molar concentration; output just the value

- COc1ccc(/C=N/NC(=O)c2ccc(N3N=C(c4ccccc4C)CC3c3ccc4ccccc4c3)cc2)cc1 (stereo not shown): 5.91
- COc1cccc(/C=N/NC(=O)c2ccc(N3N=C(c4ccccc4C)CC3c3ccc4ccccc4c3)cc2)c1 (stereo not shown): 5.85
- COc1cccc(/C=N/NC(=O)c2ccc(N3N=C(c4ccc(C)cc4)CC3c3ccc4ccccc4c3)cc2)c1 (stereo not shown): 6.37

Please find the next molecule below.
Q: // Input: COc1cccc(/C=N/NC(=O)c2ccc(N3N=C(c4cccc(C)c4)CC3c3ccc4ccccc4c3)cc2)c1 (stereo not shown) . Output its pIC50 only.
A: 5.52

====

Quick reference: melting point of the listed items.

• COc1ccc(/C=N/NC(=O)c2ccc(N3N=C(c4ccc(Br)cc4)CC3c3ccc4ccccc4c3)cc2)cc1 (centres unmarked) [Compound H32] = 238 to 240 °C

Q: // Input: COc1cccc(/C=N/NC(=O)c2ccc(N3N=C(c4ccc(Br)cc4)CC3c3ccc4ccccc4c3)cc2)c1 (centres unmarked) [Compound H16] . Output its melting point only.
A: 245 to 247 °C

Q: // Input: COc1cccc(/C=N/NC(=O)c2ccc(N3N=C(c4ccc(Cl)c(Cl)c4)CC3c3ccc4ccccc4c3)cc2)c1 (centres unmarked) [Compound H15] . Output its melting point only.
A: 234 to 236 °C

====

Quick reference: IC50 of the listed items.
test system: A549 cells; experiment: MTT antiproliferative assay, A549; type: cell-based, human; conditions: Homo sapiens, read-out: In vitro antiproliferative activity IC50, A549
The reply should contain only the number, in µM.

Below: 3 compounds and their reported IC50.
* C#Cc1cccc(Nc2ncnc3cc(OCCOC)c(OCCOC)cc23)c1 [Erlotinib, reference compound] | 0.2
* COc1cccc(/C=N/NC(=O)c2ccc(N3N=C(c4ccc(Cl)c(Cl)c4)CC3c3ccc4ccccc4c3)cc2)c1 (stereo not shown) [Compound H15] | 26.6
* COc1ccc(/C=N/NC(=O)c2ccc(N3N=C(c4ccc(C)cc4)CC3c3ccc4ccccc4c3)cc2)cc1 (stereo not shown) [Compound H20] | 0.46

Please find the next compound below.
Q: // Input: COc1cccc(/C=N/NC(=O)c2ccc(N3N=C(c4cccc(Cl)c4)CC3c3ccc4ccccc4c3)cc2)c1 (stereo not shown) [Compound H13] . Output its IC50 only.
A: 35.2

====

test system: HepG2 cells; test: MTT antiproliferative assay, HepG2; format: cell-based, human; settings: Homo sapiens, read-out: In vitro antiproliferative activity IC50, HepG2
Readout Kind: pIC50
# pIC50: negative log10 of molar concentration; output just the value

Below: 4 compounds and their reported pIC50.
• COc1cccc(/C=N/NC(=O)c2ccc(N3N=C(c4ccc(F)cc4)CC3c3ccc4ccccc4c3)cc2)c1 (stereo not shown) = 4.22
• COc1ccc(/C=N/NC(=O)c2ccc(N3N=C(c4ccc(Cl)cc4)CC3c3ccc4ccccc4c3)cc2)cc1 (stereo not shown) = 4.42
• COc1ccc(/C=N/NC(=O)c2ccc(N3N=C(c4ccc(Cl)c(Cl)c4)CC3c3ccc4ccccc4c3)cc2)cc1 (stereo not shown) = 4.44
• COc1cccc(/C=N/NC(=O)c2ccc(N3N=C(c4ccccc4F)CC3c3ccc4ccccc4c3)cc2)c1 (stereo not shown) = 4.12

Q: Return reported pIC50 for target or system HepG2 cells, item COc1ccc(/C=N/NC(=O)c2ccc(N3N=C(c4ccccc4F)CC3c3ccc4ccccc4c3)cc2)cc1 (stereo not shown) .
A: 4.15

Q: Return reported pIC50 for target or system HepG2 cells, item COc1ccc(/C=N/NC(=O)c2ccc(N3N=C(c4cccc(Cl)c4)CC3c3ccc4ccccc4c3)cc2)cc1 (stereo not shown) .
A: 4.39

====

Test system: MCF-7 cells
Assay: MTT antiproliferative assay, MCF-7
Type: cell-based, human
Conditions: Homo sapiens, MCF7, read-out: In vitro antiproliferative activity IC50, MCF-7
Description: IC50 values of the test compounds against A549, MCF-7, Hela and HepG2 cells were obtained from State Key Laboratory of Pharmaceutical Biotechnology, Nanjing University, and were determined by a standard (MTT)-based colorimetric assay (Beyotime Inst. Biotech., Nanjing, China). […] Optical absorbance was measured at 570 nm on a microplate reader (Bio-Rad, Hercules, CA, USA). […]
Readout Kind: pIC50
# pIC50: negative log10 of molar concentration; output just the value

- COc1ccc(/C=N/NC(=O)c2ccc(N3N=C(c4cccc(Cl)c4)CC3c3ccc4ccccc4c3)cc2)cc1 (centres unmarked): 4.29
- COc1ccc(/C=N/NC(=O)c2ccc(N3N=C(c4ccc(Cl)cc4)CC3c3ccc4ccccc4c3)cc2)cc1 (centres unmarked): 4.39
- C#Cc1cccc(Nc2ncnc3cc(OCCOC)c(OCCOC)cc23)c1 [Erlotinib, reference compound]: 6.92
- COc1cccc(/C=N/NC(=O)c2ccc(N3N=C(c4ccc(Cl)cc4)CC3c3ccc4ccccc4c3)cc2)c1 (centres unmarked): 4.37
- COc1ccc(/C=N/NC(=O)c2ccc(N3N=C(c4ccc(Cl)c(Cl)c4)CC3c3ccc4ccccc4c3)cc2)cc1 (centres unmarked): 4.46
- COc1cccc(/C=N/NC(=O)c2ccc(N3N=C(c4cc(OC)c(OC)c(OC)c4)CC3c3ccc4ccccc4c3)cc2)c1 (centres unmarked): 4.02
- COc1cccc(/C=N/NC(=O)c2ccc(N3N=C(c4cccc(F)c4)CC3c3ccc4ccccc4c3)cc2)c1 (centres unmarked): 4.10
- COc1ccc(/C=N/NC(=O)c2ccc(N3N=C(c4cccc(F)c4)CC3c3ccc4ccccc4c3)cc2)cc1 (centres unmarked): 4.11

Q: Return reported pIC50 for target or system MCF-7 cells, item CCOc1ccc(C2=NN(c3ccc(C(=O)N/N=C/c4cccc(OC)c4)cc3)C(c3ccc4ccccc4c3)C2)cc1 (centres unmarked) .
A: 4.80

Q: Return reported pIC50 for target or system MCF-7 cells, item COc1ccc(/C=N/NC(=O)c2ccc(N3N=C(c4ccc(F)cc4)CC3c3ccc4ccccc4c3)cc2)cc1 (centres unmarked) .
A: 4.23

====

Quick reference: melting point of the listed items.

• COc1ccc(/C=N/NC(=O)c2ccc(N3N=C(c4ccc(C)cc4)CC3c3ccc4ccccc4c3)cc2)cc1 (stereo not shown) = 241 to 243 °C
• COc1ccc(/C=N/NC(=O)c2ccc(N3N=C(c4cccc(F)c4)CC3c3ccc4ccccc4c3)cc2)cc1 (stereo not shown) = 240 to 242 °C
• COc1ccc(/C=N/NC(=O)c2ccc(N3N=C(c4ccc(Cl)c(Cl)c4)CC3c3ccc4ccccc4c3)cc2)cc1 (stereo not shown) = 243 to 245 °C

Q: // Input: COc1cccc(/C=N/NC(=O)c2ccc(N3N=C(c4cc(OC)c(OC)c(OC)c4)CC3c3ccc4ccccc4c3)cc2)c1 (stereo not shown) . Output its melting point only.
A: 230 to 232 °C

Q: // Input: COc1ccc(/C=N/NC(=O)c2ccc(N3N=C(c4ccccc4F)CC3c3ccc4ccccc4c3)cc2)cc1 (stereo not shown) . Output its melting point only.
A: 244 to 246 °C

Q: // Input: CCOc1ccc(C2=NN(c3ccc(C(=O)N/N=C/c4cccc(OC)c4)cc3)C(c3ccc4ccccc4c3)C2)cc1 (stereo not shown) . Output its melting point only.
A: 233 to 235 °C

Q: // Input: COc1cccc(/C=N/NC(=O)c2ccc(N3N=C(c4ccc(F)cc4)CC3c3ccc4ccccc4c3)cc2)c1 (stereo not shown) . Output its melting point only.
A: 235 to 237 °C

Reference source: paper PMC6273578
